target of assay: mTOR (Homo sapiens, UniProt P42345)
Construct: FLAG; made in house
Sequence (P42345 1362-2549): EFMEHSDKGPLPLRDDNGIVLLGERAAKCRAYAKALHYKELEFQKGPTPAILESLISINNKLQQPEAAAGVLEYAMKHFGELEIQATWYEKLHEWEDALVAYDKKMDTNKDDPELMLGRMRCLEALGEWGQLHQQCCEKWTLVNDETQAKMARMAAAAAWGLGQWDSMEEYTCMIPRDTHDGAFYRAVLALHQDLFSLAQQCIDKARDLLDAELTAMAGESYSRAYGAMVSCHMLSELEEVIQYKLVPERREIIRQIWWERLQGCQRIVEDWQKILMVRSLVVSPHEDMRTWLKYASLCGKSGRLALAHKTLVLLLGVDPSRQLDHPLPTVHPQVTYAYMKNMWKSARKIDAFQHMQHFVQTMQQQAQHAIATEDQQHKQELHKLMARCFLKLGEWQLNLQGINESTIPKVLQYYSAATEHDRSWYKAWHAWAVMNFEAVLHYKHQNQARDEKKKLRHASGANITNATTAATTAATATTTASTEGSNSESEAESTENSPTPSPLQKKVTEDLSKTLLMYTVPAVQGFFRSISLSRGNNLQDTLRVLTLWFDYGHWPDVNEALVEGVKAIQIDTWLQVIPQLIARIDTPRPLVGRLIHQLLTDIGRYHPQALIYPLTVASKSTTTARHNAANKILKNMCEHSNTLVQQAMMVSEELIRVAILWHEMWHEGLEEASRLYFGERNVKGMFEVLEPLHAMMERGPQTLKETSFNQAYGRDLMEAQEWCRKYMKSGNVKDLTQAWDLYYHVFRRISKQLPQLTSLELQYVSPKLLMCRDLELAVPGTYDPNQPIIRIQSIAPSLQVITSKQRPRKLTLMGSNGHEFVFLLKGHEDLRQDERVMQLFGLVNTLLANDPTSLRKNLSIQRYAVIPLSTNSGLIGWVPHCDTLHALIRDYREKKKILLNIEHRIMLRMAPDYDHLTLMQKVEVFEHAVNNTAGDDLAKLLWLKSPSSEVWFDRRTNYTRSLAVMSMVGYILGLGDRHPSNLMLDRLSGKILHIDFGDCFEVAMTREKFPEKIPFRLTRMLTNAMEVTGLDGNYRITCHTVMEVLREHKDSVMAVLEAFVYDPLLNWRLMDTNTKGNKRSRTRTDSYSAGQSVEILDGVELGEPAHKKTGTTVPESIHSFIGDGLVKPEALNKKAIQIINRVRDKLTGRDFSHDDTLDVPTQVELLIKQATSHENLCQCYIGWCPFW
protocol details: In Vitro mTOR Kinase Assay (Echo), Test (a)(ii)
Format: biochemical
condition set: read-out: mTOR Kinase Assay (Echo)
pIC50: −log10 of the molar value.
recorded endpoint: pIC50

1) COc1ccc(NC(=O)Nc2ccc(-c3nc(N4CCOC[C@@H]4C)cc(C4(S(C)(=O)=O)CC4)n3)cc2)cn1 9.07
2) CCNC(=O)Nc1ccc(-c2nc(N3CCOC[C@@H]3C)cc(C3(S(=O)(=O)c4ccc(F)cc4)CC3)n2)cc1 9.02
3) CC(C)NC(=O)Nc1ccc(-c2nc(N3CCOC[C@@H]3C)cc(C3(S(C)(=O)=O)CCCC3)n2)cc1 7.77

P. CC(C)CNC(=O)Nc1ccc(-c2nc(N3CCOC[C@@H]3C)cc(C3(S(C)(=O)=O)CC3)n2)cc1
Q. Cc1cc(NC(=O)Nc2ccc(-c3nc(N4CCOC[C@@H]4C)cc(C4(S(C)(=O)=O)CC4)n3)cc2)no1
Req: # query: argmin of pIC50 over P and Q Lab log: write the label of the selected item as the result.
Resp: P
(P: 7.94, Q: 8.93)

P. CC(C)CNC(=O)Nc1ccc(-c2nc(N3CCOC[C@@H]3C)cc(C3(S(=O)(=O)C4CC4)CC3)n2)cc1
Q. C[C@H]1COCCN1c1cc(C2(S(=O)(=O)C3CC3)CC2)nc(-c2ccc(NC(=O)NCCN(C)C)cc2)n1
Req: Could you tell me which of P and Q has the lower pIC50 reading? Please identify the chosen entry by its label.
Resp: Q

---

target of assay: mTOR (Homo sapiens)
Construct: FLAG; made in house
protocol details: In Vitro mTOR Kinase Assay (Echo), Test (a)(ii)
Format: biochemical
condition set: table of enzyme assay Test (a)(ii); read-out: Test (a)(ii) IC50
recorded endpoint: IC50 (nM)

# count of solved cases: 5
compound	IC50, nM
C[C@H](CO)NC(=O)Nc1ccc(-c2nc(N3CCOC[C@@H]3C)cc(C3(S(=O)(=O)c4ccccc4)CCC3)n2)cc1 [Example 64q]	4.67
C[C@H]1COCCN1c1cc(C2(S(C)(=O)=O)CCCC2)nc(-c2ccc(NC(=O)NC3CC3)nc2)n1 [Example 14n]	36.3
C[C@H]1COCCN1c1cc(C2(S(=O)(=O)CCCO)CCOCC2)nc(-c2ccc(NC(=O)NCCO)cc2)n1 [Example 36cg]	136
Cc1nnc(S(=O)(=O)C2(c3cc(N4CCOC[C@@H]4C)nc(-c4ccc(NC(=O)NC5CC5)cc4)n3)CC2)s1	1.31
C[C@H]1COCCN1c1cc(C2(S(=O)(=O)CCCOC(F)F)CC2)nc(-c2ccc(NC(=O)Nc3cnn(C)c3)cc2)n1 [Example 96d]	20.9

I. CC(C)(CO)NC(=O)Nc1ccc(-c2nc(N3CCOCC3)cc(C3(S(=O)(=O)C4CC4)CCCC3)n2)cc1 [Example 13m]
II. CNC(=O)Nc1ccc(-c2nc(N3CCOC[C@@H]3C)cc(C3(S(=O)(=O)c4cncc(F)c4)CC3)n2)cc1 [Example 17b]
Req: # min-compare on IC50 between I and II Kindly state the label of the option you pick.
Resp: II
(II: 0.584 nM, I: 53.2 nM)

I. Cc1nn(C(F)F)c(C)c1S(=O)(=O)C1(c2cc(N3CCOC[C@@H]3C)nc(-c3ccc(NC(=O)Nc4cnn(C)c4)cc3)n2)CC1 [Example 75f]
II. C[C@H]1COCCN1c1cc(C2(S(=O)(=O)c3c(F)cccc3F)CC2)nc(-c2ccc(NC(=O)Nc3cnn(C)c3)cc2)n1 [Example 86f]
Req: Pick one, I or II : lowest reported IC50. Your choice should be expressed through its label.
Resp: II
(II: 3.45 nM, I: 60.8 nM)

---

target of assay: mTOR (Homo sapiens)
Construct: FLAG; made in house
protocol details: In Vitro mTOR Kinase Assay (Echo), Test (a)(ii)
Format: biochemical
condition set: table of enzyme assay Test (a)(ii); read-out: Test (a)(ii) IC50
pIC50: −log10 of the molar value.
recorded endpoint: pIC50

Below are worked cases with known answers.
compound	pIC50
C[C@H]1COCCN1c1cc(C2(S(=O)(=O)CCO)CC2)nc(-c2ccc(NC(=O)NCc3ncc[nH]3)cc2)n1 [Example 16h]	6.73
C[C@H]1COCCN1c1cc(C2(S(=O)(=O)c3c(F)cccc3F)CC2)nc(-c2ccc(NC(=O)NC3CC3)cc2)n1 [Example 86b]	8.14
O=C(NCCCO)Nc1ccc(-c2nc(N3CCOCC3)cc(C3(S(=O)(=O)C4CC4)CCC3)n2)cc1 [Example 13u]	8.32
C[C@H]1COCCN1c1cc(C2(S(=O)(=O)c3ccccn3)CCCC2)nc(-c2ccc(NC(=O)NCCCO)cc2)n1 [Example 36ae]	7.82

1. C[C@H]1COCCN1c1cc(C2(S(=O)(=O)CCCO)CC2)nc(-c2ccc(NC(=O)NCCS(C)(=O)=O)cc2)n1 [Example 36cq]
2. CNC(=O)Nc1ccc(-c2nc(N3CCOC[C@@H]3C)cc(C3(S(=O)(=O)c4ccccc4)CCOCC3)n2)cc1 [Example 36cy]
Req: Compare 1 and 2 by numeric pIC50 and name the larger one. State the label of the item chosen.
Resp: 2
(2: 7.32, 1: 6.94)

---

target of assay: mTOR (Homo sapiens, UniProt P42345)
Construct: FLAG; made in house
protocol details: In Vitro mTOR Kinase Assay (Echo), Test (a)(ii)
Format: biochemical
condition set: table of enzyme assay Test (a)(ii); read-out: Test (a)(ii) IC50
recorded endpoint: IC50 (nM)

Known IC50 results, listed for orientation:
molecule	IC50 [nM]
C[C@H]1COCCN1c1cc(C2(S(=O)(=O)c3ccccc3)CC2)nc(-c2ccc(NC(=S)Nc3cnn(C)c3)cc2)n1 [Example 37w]	1.37
C[C@H]1COCCN1c1cc(C2(S(C)(=O)=O)CC2)nc(-c2ccc(NC(=O)NCC(F)F)cc2)n1 [Example 64ab]	9.4
C[C@H]1COCCN1c1cc(C2(S(=O)(=O)c3ccccc3)CCC2)nc(-c2ccc(NC(=O)NCCO)cc2)n1 [Example 36bt]	1.88

I. C[C@H]1COCCN1c1cc(C2(S(C)(=O)=O)CCCC2)nc(-c2ccc(NC(=O)Nc3cnn(C)c3)nc2)n1 [Example 14r]
II. C[C@H]1COCCN1c1cc(C2(S(=O)(=O)c3ccc(OC(F)F)cc3)CC2)nc(-c2ccc(NC(=O)Nc3cnn(C)c3)cc2)n1 [Example 64d]
Req: Select the item with the higher value of IC50 from the options I and II listed. # reply format: chosen label
Resp: I

I. CC[C@H]1COCCN1c1cc(C2(S(=O)(=O)c3ccccc3)CC2)nc(-c2ccc(NC(=O)NCCO)cc2)n1 [Example 74b]
II. CNC(=O)Nc1ccc(-c2nc(N3CCOC[C@@H]3C)cc(C3(S(=O)(=O)C4CCOC4)CC3)n2)cc1 (stereo partly drawn) [Example 94g]
III. C[C@H]1COCCN1c1cc(C2(S(=O)(=O)C(C)(C)C)CC2)nc(-c2ccc(NC(=O)NCCO)cc2)n1 [Example 18g]
IV. Cc1noc(C)c1S(=O)(=O)C1(c2cc(N3CCOC[C@@H]3C)nc(-c3ccc(NC(=O)NCCF)cc3)n2)CC1 [Example 59c]
Req: Order these by IC50, descending, and give the full ranking. Write the labels in rank order as requested.
Resp: IV, II, I, III
(IV: 22.6 nM, II: 12.7 nM, I: 2.44 nM, III: 1.23 nM)

P. C[C@H]1COCCN1c1cc(C2(S(=O)(=O)c3ccccc3)CC2)nc(-c2ccc(NC(=O)Nc3ncns3)cc2)n1 [Example 36bq]
Q. C[C@H]1COCCN1c1cc(C2(S(=O)(=O)CCCO)CC2)nc(-c2ccc(NC(=S)NCCC#N)cc2)n1 [Example 37e]
R. CNC(=O)Nc1ncc(-c2nc(N3CCOC[C@@H]3C)cc(C3(S(=O)(=O)C4CC4)CC3)n2)cn1 [Example 14x]
S. CCNC(=O)Nc1ccc(-c2nc(N3CCOC[C@H]3C)cc(C3(S(=O)(=O)c4ccccc4)CC3)n2)cc1
T. Cc1csc(S(=O)(=O)C2(c3cc(N4CCOC[C@@H]4C)nc(-c4ccc(NC(=O)NC5(CO)CC5)cc4)n3)CC2)n1 [Example 36q]
Req: # sort list by recorded IC50, greatest to least Give me the labels in the order the question wants.
Resp: R, T, S, Q, P

P. CCNC(=O)Nc1ccc(-c2nc(N3CCOC[C@@H]3C)cc(C3(S(=O)(=O)c4c(C)noc4C)CC3)n2)cc1 [Example 59f]
Q. C[C@H]1COCCN1c1cc(C2(S(=O)(=O)C(C)(C)C)CC2)nc(-c2ccc(NC(=O)NCCN(C)C)cc2)n1 [Example 18f]
R. C[C@H]1COCCN1c1cc(C2(S(C)(=O)=O)CC2)nc(-c2ccc(NC(=O)NCCO)c(F)c2)n1 [Example 52c]
S. CNC(=O)Nc1ccc(-c2nc(N3CCOC[C@@H]3C)cc(C3(S(=O)(=O)c4cc(F)cc(F)c4)CC3)n2)cc1 [Example 19i]
Req: Sort the 4 molecules by IC50; largest first, smallest last. The reply should contain the labels ordered as requested.
Resp: Q, P, R, S

1. CNC(=O)Nc1ccc(-c2nc(N3CCOC[C@@H]3C)cc(C3(S(=O)(=O)c4ccc(OC(F)F)cc4)CC3)n2)cc1 [Example 64a]
2. C[C@H]1COCCN1c1cc(C2(S(=O)(=O)c3ccccn3)CC2)nc(-c2ccc(NC(=O)NCCO)cc2)n1 [Example 28g]
Req: Compare 1 and 2 and name the one whose reported IC50 is smaller. Use the label to indicate which entry you chose.
Resp: 2

P. C[C@H]1COCCN1c1cc(C2(S(C)(=O)=O)CCCC2)nc(-c2ccc(NC(=O)NCCO)cc2)n1
Q. C[C@H]1COCCN1c1cc(C2(S(C)(=O)=O)CC2)nc(-c2ccc(NC(=O)Nc3ccon3)cc2)n1
Req: Return label of the item with the larger IC50. Candidates: P , Q . Returns: label corresponding to the selected item.
Resp: P
(P: 0.767 nM, Q: 0.231 nM)

a. C[C@H]1COCCN1c1cc(C2(S(=O)(=O)c3ccccc3)CCCC2)nc(-c2ccc(NC(=O)NC3CC3)cc2)n1 [Example 36bw]
b. C[C@H]1COCCN1c1cc(C2(S(=O)(=O)c3ccc(C(N)=O)cc3Cl)CC2)nc(-c2ccc(NC(=O)NCCO)cc2)n1 [Example 85d]
Req: Choose between a and b : whose measured IC50 value is numerically larger? Your answer should be the label of the entry you select.
Resp: a
(a: 9.09 nM, b: 3.23 nM)

a. CNC(=O)Nc1ccc(-c2nc(N3CCOC[C@@H]3C)cc(C3(S(=O)(=O)CCOC)CC3)n2)cc1
b. C[C@H]1COCCN1c1cc(C2(S(=O)(=O)c3cnn(C(F)F)c3)CC2)nc(-c2ccc(NC(=O)NCCO)cc2)n1 [Example 64al]
Req: # compare IC50 for a vs b ; return the one with the smaller value Bench note: the answer is the label of the chosen record.
Resp: a
